Overview of reported IC50, neutralization of HGF stimulated BrdU incorporation in 4 MBr-5 cells across a group of binders:
Target: recombinant human HGF (R&D Systems, Catalog No. 294-HGN-025) (human, UniProt P14210 32-728)
Sequence (P14210 32-728 limits assumed): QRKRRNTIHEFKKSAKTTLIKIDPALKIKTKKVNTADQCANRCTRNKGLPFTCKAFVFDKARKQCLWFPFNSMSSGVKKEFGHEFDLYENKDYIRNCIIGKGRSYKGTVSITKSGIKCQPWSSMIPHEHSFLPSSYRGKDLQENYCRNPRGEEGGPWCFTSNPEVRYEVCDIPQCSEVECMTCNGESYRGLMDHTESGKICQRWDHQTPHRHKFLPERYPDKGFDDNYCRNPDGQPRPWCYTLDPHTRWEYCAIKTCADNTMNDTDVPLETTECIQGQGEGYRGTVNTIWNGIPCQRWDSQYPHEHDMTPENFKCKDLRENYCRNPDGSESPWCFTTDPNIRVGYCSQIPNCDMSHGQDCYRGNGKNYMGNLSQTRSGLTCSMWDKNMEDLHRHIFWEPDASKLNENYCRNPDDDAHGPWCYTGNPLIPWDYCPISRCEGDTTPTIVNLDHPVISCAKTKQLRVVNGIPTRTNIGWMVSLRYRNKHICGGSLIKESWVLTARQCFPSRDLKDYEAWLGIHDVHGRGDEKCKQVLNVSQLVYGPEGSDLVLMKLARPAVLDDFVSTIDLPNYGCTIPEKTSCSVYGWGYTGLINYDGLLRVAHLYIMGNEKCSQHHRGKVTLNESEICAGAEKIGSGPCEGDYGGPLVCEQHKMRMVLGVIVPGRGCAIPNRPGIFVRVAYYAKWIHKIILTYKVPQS
Experiment: cell-based or functional assay
# value in nM; strip the unit string

Examples with their reported IC50, neutralization of HGF stimulated BrdU incorporation in 4 MBr-5 cells follow.
{"Binder": "anti-hHGF monoclonal antibody 3B6 (antibody, mouse IgG1, kappa, V domains shown, Murine IgG1 kappa from hybridoma) VH: QVQLQQSGAELVRPGSSVKISCKASGYVFSSYWMNWVKQRPGQGLEWIGQIYPGDGDSNYNGNFKGKATLTADKSSSTAYMQLSSLTSEDSAVYFCASQLGLRENYFDYWGQGTTLTVSS VL: DIKMTQSPSSMYASLGERVTITCKASQDIKSYLSWFQQKPGKSPKTLIYRVNRLVDGVPSRFSGSGSGQDSSLTITSLENEDMGIYYCLQYDEFPFTFGGGTKLEIKR", "Result": 36.1}
{"Binder": "anti-hHGF monoclonal antibody 2F8 (antibody, mouse IgG1, kappa, V domains shown, Murine IgG1 kappa from hybridoma) VH: QVQLKQSGAELVRPGTSVKMSCKASGYTFTTYYIHWVNQRPGQGLEWIGKIGPGSGSTYYNEMFKDKATLTVDTSSSTAYMQLSSLTSDDSAVYFCARRGLGRGFDYWGQGTTLTVSS VL: DIVLTQSPASLAVSLGQRATISCKASQSVDYDGNSYINWYQQKPGQPPKVLIYVASNLESGIPARFSGSGSGTDFTLNIHPVEEEDAATYYCQQSIEDPPTFGAGTKLELKR", "Result": 19.2}
{"Binder": "anti-hHGF monoclonal antibody 1D3 (antibody, mouse IgG1, kappa, V domains shown, Murine IgG1 kappa from hybridoma) VH: EVQLVESGGGLVQPGGSLKLSCAASGFTFSDYYMSWVRQTPEKRLEWVAYISSGGGSTYYPDSVKGRFTISRDNAKNTLYLQMSSLKSEDTAIYYCVRQGDGYYGDYAMDYWGQGTSVIVSS VL: DIQMTQSPASLSVSVGETVTITCRTSENIYSNLAWYQQKQGKSPQLLIYAATNLADGVPSRFSGSGSGTQFSLRINSLQSEDFGRYYCQHFWGTPYTFGGGTKLEIKR", "Result": 4.99}

**Q:** Consider the binder anti-hHGF monoclonal antibody 3D11 (antibody, mouse IgG1, kappa, V domains shown, Murine IgG1 kappa from hybridoma) VH: QVQLKESGPGLVAPSQSLSITCTVSGFSLTSYSLHWVRQPPGKGLEWLGVIWAGGNTNYNSSLMSRLTIRKDNSKSQVFLKMNSLQTDDTAMYYCARERFAYWGQGTLVTVSA VL: QIVLTQSPAIMSAYPGEKVTMTCSASSSVSYMHWYQQKSGTSPKRWIYDTSKLASGVPARFSGSGSGTSYSLTISSMEAEDAATYYCQQWSSNPLTFGAGTKLELKR and give its recorded IC50, neutralization of HGF stimulated BrdU incorporation in 4 MBr-5 cells.
**A:** 51.1
